Entry source: paper PMC10786891

- target_desc: T1, EsCas13d, nuclease-dead (Eubacterium siraeum, UniProt B0MS50, R295A;H300A;R849A;H854A)
- T1 sequence: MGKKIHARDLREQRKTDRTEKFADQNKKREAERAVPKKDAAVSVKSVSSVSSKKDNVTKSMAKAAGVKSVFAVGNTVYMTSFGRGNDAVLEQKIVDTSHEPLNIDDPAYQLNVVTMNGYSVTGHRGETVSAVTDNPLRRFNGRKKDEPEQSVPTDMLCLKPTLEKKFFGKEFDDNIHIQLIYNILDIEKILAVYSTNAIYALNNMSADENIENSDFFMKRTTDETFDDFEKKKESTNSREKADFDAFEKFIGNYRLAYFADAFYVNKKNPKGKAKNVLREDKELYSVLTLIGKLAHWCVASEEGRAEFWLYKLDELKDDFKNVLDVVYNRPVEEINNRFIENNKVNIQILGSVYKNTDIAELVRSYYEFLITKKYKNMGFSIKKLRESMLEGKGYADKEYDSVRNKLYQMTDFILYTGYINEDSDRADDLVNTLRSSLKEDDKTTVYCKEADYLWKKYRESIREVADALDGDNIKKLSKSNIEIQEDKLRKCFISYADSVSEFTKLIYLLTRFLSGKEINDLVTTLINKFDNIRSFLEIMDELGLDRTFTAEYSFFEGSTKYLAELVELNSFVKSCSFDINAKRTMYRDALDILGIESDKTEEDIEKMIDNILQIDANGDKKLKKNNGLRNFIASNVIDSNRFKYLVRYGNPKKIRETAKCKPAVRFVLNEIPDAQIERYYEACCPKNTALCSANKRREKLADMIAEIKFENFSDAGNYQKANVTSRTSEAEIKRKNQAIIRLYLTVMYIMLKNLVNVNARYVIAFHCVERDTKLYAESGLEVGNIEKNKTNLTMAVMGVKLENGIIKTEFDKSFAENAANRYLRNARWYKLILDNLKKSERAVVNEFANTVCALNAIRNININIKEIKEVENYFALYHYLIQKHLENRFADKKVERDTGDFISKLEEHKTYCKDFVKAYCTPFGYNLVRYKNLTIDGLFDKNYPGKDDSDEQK
- protocol_details: crRNA (strand 1, pre-loaded); Mg2+; 40 mM Tris-HCl pH 7.5, 150 mM NaCl, 6 mM MgCl2, 1 mM DTT, 0.1% Tween-20, 0.2 mg/ml BSA; 25 C; 10 min per concentration, then washed
- experimental_setup: tags: His6-TwinStrep-SUMO cleaved; N-terminal SNAP kept (SNAP-Surface 488); label: 3' end held by stalled T7 RNA polymerase
assay_metric: Kd (nM)
Provide the reading as a plain figure in nM.

GET /value?item= target 2 MT 5'PFS UGA 3'PFS CCG (mixed) RNA 1: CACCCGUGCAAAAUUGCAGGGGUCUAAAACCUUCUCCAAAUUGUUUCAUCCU RNA 2: GGGAAUGGAUCCACAUCUACGAAUUCUGAAGGAUGAAACAAUUUGGAGAAGCCGAGAUCGGAAGAGCACACGU &field=Kd returns 9.2

Lab note: target 1 U8A,C22G (mixed) RNA 1: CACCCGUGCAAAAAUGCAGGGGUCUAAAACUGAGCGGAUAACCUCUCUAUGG RNA 2: GGGAAUGGAUCCACAUCUACGAAUUCGUAGCAUAGAGAGGUUAACCGCUCACCGAGAUCGGAAGAGCACACGU gave Kd of 68
